- Target Under Test: MAP/microtubule affinity-regulating kinase 3 (Homo sapiens);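 also: mean percent inhibition of MARK3 kinase activity, measured within the GSK PKIS screening panel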
- Study Conditions: at 0.1 µM
Hi there, I'd appreciate the recorded inhibition for every entry that follows.
Give bare numbers, in %.

Below: 3 molecules and their reported inhibition.
{"columns": ["Compound String", "Target Under Test", "inhibition / %"],
 "data": [
  ["Cc1nn(C)c2cc(N(C)c3ccnc(Nc4cccc(S(N)(=O)=O)c4)n3)ccc12", "MAP/microtubule affinity-regulating kinase 3 (Homo sapiens)", 0.92],
  ["COc1ccc(-c2nn3ncccc3c2-c2ccnc(Nc3ccc(Cl)c(C(F)(F)F)c3)n2)cc1", "MAP/microtubule affinity-regulating kinase 3 (Homo sapiens)", -0.96],
  ["CCc1cccc(NC(=O)Nc2ccc(Oc3ccc4nc(NC(=O)OC)[nH]c4c3)cc2)c1", "MAP/microtubule affinity-regulating kinase 3 (Homo sapiens)", 1.5]
]}

Lab note: each molecule below needs its inhibition filled in.
1. O=C1NC(=O)C(c2ccc(Cl)cc2)=C1Nc1ccc(Cl)c(C(=O)O)c1
2. c1cnn2ncc(-c3ccnc(Nc4ccc5c(c4)OCCO5)n3)c2c1
3. COc1cc2ncn(-c3cc(O[C@@H](C)c4ccccc4Cl)c(C(N)=O)s3)c2cc1OC
4. COc1ccc(-c2ccncc2)cc1C(N)=O
5. CCN1CCC(CC(=O)Nc2n[nH]c3nc(-c4cccs4)c(Br)cc23)CC1
6. COc1cccc(-n2ncc3c(N/N=C/c4cccc(F)c4)ncnc32)c1
7. N#Cc1c(NC(=O)c2cccc3ccccc23)sc2c1CCCC2

(A)
[-0.12, 5.06, 4.06, 3.29, 1, 0.17, 2.5]

----------
- System: Platelet-derived growth factor receptor alpha (Homo sapiens), P16234 [T674I]
- Sequence (P16234 whole entry T674I): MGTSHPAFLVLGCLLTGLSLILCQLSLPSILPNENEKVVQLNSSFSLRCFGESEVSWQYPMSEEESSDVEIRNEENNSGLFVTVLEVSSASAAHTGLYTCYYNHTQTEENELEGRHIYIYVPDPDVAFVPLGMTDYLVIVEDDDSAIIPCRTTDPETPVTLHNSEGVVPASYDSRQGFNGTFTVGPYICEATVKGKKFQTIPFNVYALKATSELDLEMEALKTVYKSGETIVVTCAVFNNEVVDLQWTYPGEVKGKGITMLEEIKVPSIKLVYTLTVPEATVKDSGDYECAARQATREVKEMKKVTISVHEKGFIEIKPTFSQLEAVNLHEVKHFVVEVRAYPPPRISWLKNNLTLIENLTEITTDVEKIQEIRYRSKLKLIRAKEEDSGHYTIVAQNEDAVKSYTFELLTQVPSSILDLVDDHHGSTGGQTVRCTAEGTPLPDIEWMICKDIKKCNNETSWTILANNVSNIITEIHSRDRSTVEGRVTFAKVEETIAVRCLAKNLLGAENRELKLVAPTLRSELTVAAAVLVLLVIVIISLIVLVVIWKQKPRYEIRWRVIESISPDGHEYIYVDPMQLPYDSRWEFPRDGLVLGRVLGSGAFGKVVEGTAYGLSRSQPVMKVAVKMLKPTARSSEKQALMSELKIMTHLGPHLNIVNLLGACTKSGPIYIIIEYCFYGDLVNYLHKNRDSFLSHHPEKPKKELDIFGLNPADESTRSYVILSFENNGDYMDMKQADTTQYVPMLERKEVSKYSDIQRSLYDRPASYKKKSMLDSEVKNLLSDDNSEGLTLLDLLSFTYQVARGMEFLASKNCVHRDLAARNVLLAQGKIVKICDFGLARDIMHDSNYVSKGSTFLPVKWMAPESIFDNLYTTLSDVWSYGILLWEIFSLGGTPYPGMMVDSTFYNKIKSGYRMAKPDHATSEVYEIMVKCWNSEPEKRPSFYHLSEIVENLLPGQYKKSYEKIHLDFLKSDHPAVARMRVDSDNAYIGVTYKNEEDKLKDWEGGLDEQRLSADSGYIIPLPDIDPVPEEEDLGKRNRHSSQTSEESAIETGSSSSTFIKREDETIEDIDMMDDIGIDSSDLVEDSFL
- Study Conditions: at 0.1 µM
Hi there, I'd appreciate the recorded inhibition for every entry that follows.
Numbers only, in %.

Below: 5 molecules and their reported inhibition.
{"columns": ["Molecule", "Endpoint Unit", "inhibition"],
 "data": [
  ["COc1ccc(-c2coc3ncnc(N)c23)cc1", "%", 5.4],
  ["Fc1cccc(COc2ccc(Nc3ncnc4cc(-c5ccc[nH]5)sc34)cc2Cl)c1", "%", 4.02],
  ["O=C1NC(=O)C(c2ccccc2Cl)=C1Nc1cccc(O)c1", "%", 1.6],
  ["CCn1c(-c2nonc2N)nc2c(C#CC(C)(C)O)nc(CN3CCCC3)cc21", "%", 2.75],
  ["CC1=C(C(=O)Nc2ccc3[nH]ncc3c2)C(c2ccc(F)cc2)NC(=O)N1 (stereo not given)", "%", 3.58]
]}

Lab note: each molecule below needs its inhibition filled in.
1. CCn1c(-c2nonc2N)nc2cncc(C(=O)N3CC[C@H](N)C3)c21
2. COc1cc2ncn(-c3cc(O[C@@H](C)c4ccccc4Cl)c(C(N)=O)s3)c2cc1OC

(A)
1: 6.8; 2: 7.94

Lab note: each molecule below needs its inhibition filled in.
1. Nc1ncnc2occ(-c3ccc(NC(=O)Nc4cccc(C(F)(F)F)c4)cc3)c12
2. O=C1Nc2ccc(C(=O)c3ccco3)cc2C1=Cc1cc(Cl)c(O)c(Cl)c1
3. Nc1ncnc2occ(-c3ccc(NC(=O)Nc4cc(C(F)(F)F)cc(C(F)(F)F)c4)cc3)c12
4. CNC(=O)c1cncc(/C=C/c2c(Cl)cccc2Cl)c1
5. Nc1nc(-c2ccc3c(c2)C(=Cc2cc(Br)c(O)c(Br)c2)C(=O)N3)cs1
6. [O-][S+]1CCN(Cc2ccc(-c3ccc4ncnc(Nc5ccc(OCc6ccccc6)c(F)c5)c4c3)o2)CC1

(A)
1: 79.5; 2: 6.25; 3: 60.3; 4: 1.59; 5: 0.36; 6: 2.19

Lab note: each molecule below needs its inhibition filled in.
1. COc1ccc(COc2ccc(Cc3cnc(N)nc3N)cc2OC)cc1
2. NC(=O)c1ccc(-c2nc(-c3ccccn3)c(-c3ccc4c(c3)OCO4)[nH]2)cc1
3. CCn1c(-c2nonc2N)nc2cncc(C(=O)N3CCNCC3)c21
4. Cc1ccc(C(=O)NC2CCCCC2)cc1-c1ccc(C(=O)NCC2CC2)cc1
5. Cc1nn(C)c2cc(N(C)c3ccnc(Nc4cccc(S(N)(=O)=O)c4)n3)ccc12
6. COc1cc2ncn(-c3cc(OCc4ccccc4C(F)(F)F)c(C(N)=O)s3)c2cc1OC
7. CS(=O)(=O)Nc1ccc(N/C=C2\C(=O)Nc3ccccc32)cc1
8. COc1cc2c(cc1Nc1nc(N3CCc4ccccc43)c3cc[nH]c3n1)N(C(=O)CN(C)C)CC2

(A)
1: 2.62; 2: 8.08; 3: 4.21; 4: 4.09; 5: 5.29; 6: 19.1; 7: 11.1; 8: 1.67

Lab note: each molecule below needs its inhibition filled in.
1. N#Cc1c(NC(=O)c2cccc3ccccc23)sc2c1CCCC2
2. O=C(Nc1n[nH]c2nc(-c3ccco3)c(Br)cc12)C1CC1
3. CCn1c(-c2nonc2N)nc2cnc(Oc3cccc(NC(=O)c4ccc(OCCN5CCOCC5)cc4)c3)cc21
4. CC(=O)Nc1cccc(C#Cc2cncnc2Nc2ccc(OCc3cccc(F)c3)c(Cl)c2)n1
5. COc1cc(C)c(NC(=O)CN(C)C)cc1Nc1nc(Nc2cccc(F)c2C(N)=O)c2cc[nH]c2n1

(A)
4.77
5.19
4.39
-0.15
0.9

Lab note: each molecule below needs its inhibition filled in.
1. CN(C)c1cc2c(Nc3ccc4nc(Cc5ccccc5)[nH]c4c3)ncnc2cn1
2. COc1cc2ncn(-c3cc(OCc4ccccc4Cl)c(C(N)=O)s3)c2cc1OC
3. COc1ccc2cc(-c3c(-c4ccncc4)nc(-c4ccc([S+](C)[O-])cc4)n3C)ccc2c1 (stereo not given)
4. CC1=C(C(=O)Nc2ccc3[nH]ncc3c2)C(c2ccc(Cl)c(Cl)c2)CC(=O)N1 (stereo not given)
5. CCCN1CCC(Oc2cc(Nc3nc(Nc4cccc(F)c4C(N)=O)c4cc[nH]c4n3)c(OC)cc2Cl)CC1

(A)
1: 5.35; 2: 9.35; 3: 3.93; 4: 2.47; 5: 2.51

Lab note: each molecule below needs its inhibition filled in.
1. CS(=O)(=O)CCNCc1ccc(-c2ccc3ncnc(Nc4ccc(OCc5ccccc5)c(Cl)c4)c3c2)o1
2. CCCN1CCC=C(c2ccc(Nc3nc(Nc4ccccc4C(N)=O)c4cc[nH]c4n3)c(C)c2)C1

(A)
1: 8.72; 2: 4.99

Lab note: each molecule below needs its inhibition filled in.
1. Nc1nc(-c2ccccn2)c(-c2ccc3ncccc3n2)s1
2. CC(C)=Cc1cccc2c1/C(=N/Nc1ccc(S(N)(=O)=O)cc1)C(=O)N2
3. Cc1cc(O)cc(C)c1/C=C/c1cncc(-c2nn[nH]n2)c1

(A)
1: 3.45; 2: 7.43; 3: 7.51

Lab note: each molecule below needs its inhibition filled in.
1. CC1=C(C(=O)Nc2ccc3[nH]ncc3c2)C(c2ccc3ccccc3c2)CC(=O)N1 (stereo not given)
2. CCn1c(-c2nonc2N)nc2ccncc21

(A)
[3.54, 2.72]

Lab note: each molecule below needs its inhibition filled in.
1. O=C1NC(=O)C(c2ccc(Cl)cc2)=C1Nc1ccc(Cl)c(C(=O)O)c1
2. CCn1c(-c2nonc2N)nc2c(N3CCCC3)nccc21

(A)
[0.45, 0.33]

----------
Hi there, I'd appreciate the recorded inhibition for every entry that follows.
- Target Under Test: Serine/threonine-protein kinase Chk1 (Homo sapiens) (UniProt O14757);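 also: mean inhibition of CHEK1, part of the GSK PKIS profiling set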
- Sequence (O14757 whole entry): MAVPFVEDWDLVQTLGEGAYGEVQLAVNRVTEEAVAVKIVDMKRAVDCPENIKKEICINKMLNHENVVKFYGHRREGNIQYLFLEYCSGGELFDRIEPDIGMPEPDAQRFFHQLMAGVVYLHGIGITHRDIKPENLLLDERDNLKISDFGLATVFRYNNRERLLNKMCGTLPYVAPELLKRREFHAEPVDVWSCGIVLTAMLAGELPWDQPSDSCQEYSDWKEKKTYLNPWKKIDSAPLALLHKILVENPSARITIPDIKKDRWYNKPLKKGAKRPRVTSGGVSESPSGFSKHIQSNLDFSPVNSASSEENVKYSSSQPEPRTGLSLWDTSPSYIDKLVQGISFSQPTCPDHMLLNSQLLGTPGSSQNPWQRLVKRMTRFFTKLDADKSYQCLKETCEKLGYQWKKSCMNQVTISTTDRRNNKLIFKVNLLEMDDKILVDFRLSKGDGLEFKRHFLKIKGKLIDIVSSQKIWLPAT
- Study Conditions: at 1 µM
Answers are plain numbers, in %.

{"columns": ["Compound", "Measurement Name", "Data Value"],
 "data": [
  ["COc1cc2ncn(-c3cc(O[C@H](C)c4ccccc4Cl)c(C(N)=O)s3)c2cc1OC", "inhibition", -0.5],
  ["COC(=O)Nc1nc2cc(Oc3cccc(NC(=O)Nc4cc(C(F)(F)F)ccc4F)c3)ccc2[nH]1", "inhibition", -1.51],
  ["CCn1c(-c2nonc2N)nc2ccncc21", "inhibition", 0.17],
  ["COc1ccc(-c2ccncc2)cc1C(N)=O", "inhibition", 10.1],
  ["CNC(=O)c1cncc(/C=C/c2c(Cl)cccc2Cl)c1", "inhibition", 4.57],
  ["CC1=C(C(=O)Nc2ccc3[nH]ncc3c2)C(c2ccc(Cl)c(Cl)c2)CC(=O)N1 (stereo not given)", "inhibition", -0.85]
]}

Lab note: each compound below needs its inhibition filled in.
1. CCCN1CCC(Oc2cc(Nc3nc(Nc4cccc(F)c4C(N)=O)c4cc[nH]c4n3)c(OC)cc2Cl)CC1
2. CCN1CCC(CC(=O)Nc2n[nH]c3nc(-c4cccs4)c(Br)cc23)CC1
3. CS(=O)(=O)CCN(CC#N)Cc1ccc(-c2ccc3ncnc(Nc4ccc(OCc5cccc(F)c5)c(Cl)c4)c3c2)o1
4. Cc1nn(C)c2cc(N(C)c3ccnc(Nc4cccc(S(N)(=O)=O)c4)n3)ccc12

(A)
1: 3.67; 2: 2.57; 3: 2.55; 4: 56

Lab note: each compound below needs its inhibition filled in.
1. O=C1NC(=O)C(c2cccc(Cl)c2)=C1Nc1ccc(O)c(Cl)c1
2. COc1cc2ncn(-c3cc(OCc4ccccc4C(F)(F)F)c(C(N)=O)s3)c2cc1OC

(A)
4.63
3.46

Lab note: each compound below needs its inhibition filled in.
1. COc1cc(C=NNc2ncnc3c2cnn3-c2ccccc2)ccc1O
2. Fc1cccc(COc2ccc(Nc3ncnc4sc(-c5cccs5)cc34)cc2Cl)c1
3. COc1cccc(-n2ncc3c(N/N=C/c4cccc(F)c4)ncnc32)c1

(A)
1. -2.87
2. -5.05
3. 3.28
